Target Entity: recombinant guanylate cyclase reporter cell line (Rattus norvegicus)
Sequence (P20595 whole entry): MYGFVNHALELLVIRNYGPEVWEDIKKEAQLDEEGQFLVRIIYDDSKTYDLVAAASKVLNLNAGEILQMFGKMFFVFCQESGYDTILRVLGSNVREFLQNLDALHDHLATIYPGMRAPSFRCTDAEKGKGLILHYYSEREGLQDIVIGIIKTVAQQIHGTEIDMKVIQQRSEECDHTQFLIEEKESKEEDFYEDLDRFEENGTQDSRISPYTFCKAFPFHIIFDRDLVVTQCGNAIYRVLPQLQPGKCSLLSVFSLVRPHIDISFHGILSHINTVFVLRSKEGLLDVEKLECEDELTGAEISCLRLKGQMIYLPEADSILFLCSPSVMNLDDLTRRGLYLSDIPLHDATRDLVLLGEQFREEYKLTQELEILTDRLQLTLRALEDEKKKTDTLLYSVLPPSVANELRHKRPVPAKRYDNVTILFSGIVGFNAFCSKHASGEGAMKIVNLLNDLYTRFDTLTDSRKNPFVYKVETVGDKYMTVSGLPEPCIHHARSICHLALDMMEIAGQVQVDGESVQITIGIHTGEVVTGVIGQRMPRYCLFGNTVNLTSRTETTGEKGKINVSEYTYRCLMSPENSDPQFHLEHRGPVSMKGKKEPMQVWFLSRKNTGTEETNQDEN
Sequence (P19686 whole entry partner): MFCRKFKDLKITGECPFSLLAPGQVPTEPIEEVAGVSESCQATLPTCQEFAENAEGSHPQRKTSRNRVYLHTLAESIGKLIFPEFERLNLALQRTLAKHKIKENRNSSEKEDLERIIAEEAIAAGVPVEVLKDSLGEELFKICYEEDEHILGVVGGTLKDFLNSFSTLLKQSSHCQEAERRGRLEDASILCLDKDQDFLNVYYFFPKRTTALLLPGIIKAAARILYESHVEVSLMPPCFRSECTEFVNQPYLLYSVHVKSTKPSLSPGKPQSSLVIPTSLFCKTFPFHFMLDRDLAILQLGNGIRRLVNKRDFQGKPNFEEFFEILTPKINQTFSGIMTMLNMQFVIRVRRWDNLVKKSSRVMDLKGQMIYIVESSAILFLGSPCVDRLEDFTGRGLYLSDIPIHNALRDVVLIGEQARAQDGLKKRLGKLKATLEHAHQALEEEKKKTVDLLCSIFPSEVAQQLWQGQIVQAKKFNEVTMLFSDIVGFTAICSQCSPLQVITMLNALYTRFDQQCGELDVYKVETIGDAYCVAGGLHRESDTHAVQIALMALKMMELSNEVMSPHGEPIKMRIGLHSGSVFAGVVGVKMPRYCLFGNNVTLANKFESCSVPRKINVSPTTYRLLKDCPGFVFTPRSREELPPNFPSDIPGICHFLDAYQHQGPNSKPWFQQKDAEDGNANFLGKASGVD
Experiment Description: Effect on a recombinant guanylate cyclase reporter cell line
Condition Set: half maximal effective concentration; in some cases mean values from individual determinations
Counter-ions that a name gives are not always drawn.
Metric: EC50 (µM)

Here's what some known entries look like.
# Compound, Target Entity, EC50 / µM
measured = [
    ("O=C(O)c1cnn(C2CCCN(c3cc(Cl)ccc3-c3ccc(N4CCN(CC5CC56CC6)CC4)cc3)C2)c1C(F)(F)F (single isomer, unassigned) [Example 30, hydrochloride]", "recombinant guanylate cyclase reporter cell line (Rattus norvegicus)", 0.0089),
    ("O=C(O)c1cnn(C2CCCN(c3cc(Cl)ccc3-c3ccc(N4CCN(C[C@@H]5C[C@@H]5F)CC4)cc3)C2)c1C(F)(F)F (single isomer, unassigned) [Example 28, hydrochloride]", "recombinant guanylate cyclase reporter cell line (Rattus norvegicus)", 0.0055),
    ("O=C(O)c1cnn(C2CCCN(c3cc(Cl)ccc3-c3ccc(N4CCN(C(=O)C5CC5(F)F)CC4)cc3)C2)c1C(F)(F)F (single isomer, unassigned)", "recombinant guanylate cyclase reporter cell line (Rattus norvegicus)", 0.017),
]

(A) O=C(O)c1cnn(C2CCCN(c3cc(Cl)ccc3-c3ccc(N4CCN(C(=O)OCCOC(F)(F)F)CC4)cc3)C2)c1C(F)(F)F (single isomer, unassigned)
(B) O=C(O)c1cnn(C2CCCN(c3cc(Cl)ccc3-c3ccc(N4CCN(C[C@@H]5C[C@@H]5F)CC4)cc3)C2)c1C(F)(F)F (single isomer, unassigned) [Example 8, hydrochloride]
(C) O=C(O)c1cnn(C2CCCN(c3cc(Cl)ccc3-c3ccc(N4CCN(CCC(F)(F)F)CC4)cc3)C2)c1C(F)(F)F (single isomer, unassigned) [Example 17, hydrochloride]
Asked: Sort the compounds on EC50; start with the lowest figure. Return the labels ranked in the requested order, please.
Given back: C, B, A
(C: 0.0014 µM, B: 0.053 µM, A: 0.084 µM)

(A) CN1CCN(c2ccc(-c3ccc(Cl)cc3N3CCCC(n4ncc(C(=O)O)c4C(F)(F)F)C3)cc2)CC1 (single isomer, unassigned) [Example 1]
(B) CN1CCN(c2ccc(-c3ccc(Cl)cc3N3CCCC(n4ncc(C(=O)O)c4C(F)(F)F)C3)cc2)CC1 (single isomer, unassigned) [Example 2, hydrochloride]
Asked: Quick check, higher EC50 between A and B ? Kindly give the label for the entry you pick.
Given back: A

Where these numbers come from: patent US20240109864A1
